Where these numbers come from: ChEMBL document CHEMBL4311994

Experiment summary: Hemolytic activity in human erythrocytes at 100.0 +/- 7.8 uM incubated for 1 hrs by photometric analysis relative to control
Format: ADME, cell-based, Erythrocyte
Study conditions: read-out: Activity
Quantity measured: hemolysis at 1 h, 100 uM (%)

Molecule: CCOP(=O)(OCC)C(c1cc(C(C)(C)C)c(O)c(C(C)(C)C)c1)c1ccc(N)nc1N (stereo not drawn)
Quantity measured: hemolysis at 1 h, 100 uM
Quantitative readout: 0
--
Molecule: CC(C)(C)c1cc(C(c2ccc(N)cc2N)P(=O)(Oc2ccccc2)Oc2ccccc2)cc(C(C)(C)C)c1O (stereo not drawn)
Quantity measured: hemolysis at 1 h, 100 uM
Quantitative readout: 1.9
--
Molecule: CC(C)(C)c1cc(C(c2ccc(N)nc2N)P(=O)(Oc2ccccc2)Oc2ccccc2)cc(C(C)(C)C)c1O (stereo not drawn)
Quantity measured: hemolysis at 1 h, 100 uM
Quantitative readout: 1.9
--
Molecule: COP(=O)(Cc1cc(C(C)(C)C)c(O)c(C(C)(C)C)c1)OC
Quantity measured: hemolysis at 1 h, 100 uM
Quantitative readout: 0
--
Molecule: CC(C)OP(=O)(OC(C)C)C(c1cc(C(C)(C)C)c(O)c(C(C)(C)C)c1)c1ccc(N)nc1N (stereo not drawn)
Quantity measured: hemolysis at 1 h, 100 uM
Quantitative readout: 0.3
--
Molecule: COP(=O)(OC)C(c1cc(C(C)(C)C)c(O)c(C(C)(C)C)c1)c1ccc(N)cc1N (stereo not drawn)
Quantity measured: hemolysis at 1 h, 100 uM
Quantitative readout: 0
--
Molecule: COP(=O)(OC)C(c1cc(C(C)(C)C)c(O)c(C(C)(C)C)c1)c1ccc(N)nc1N (stereo not drawn)
Quantity measured: hemolysis at 1 h, 100 uM
Quantitative readout: 0
--
Molecule: CCOP(=O)(OCC)C(c1cc(C(C)(C)C)c(O)c(C(C)(C)C)c1)c1ccc(N)cc1N (stereo not drawn)
Quantity measured: hemolysis at 1 h, 100 uM
Quantitative readout: 0
